FYI, the data here is from patent US20230012273A1.

Target: T1, cynoSIRPα (NP_001271679), Extracellular Domain + His-Tag (cynomolgus monkey)
T1 construct: also called CySIRPα NP_001271679; not shown: His-Tag
T1 chain: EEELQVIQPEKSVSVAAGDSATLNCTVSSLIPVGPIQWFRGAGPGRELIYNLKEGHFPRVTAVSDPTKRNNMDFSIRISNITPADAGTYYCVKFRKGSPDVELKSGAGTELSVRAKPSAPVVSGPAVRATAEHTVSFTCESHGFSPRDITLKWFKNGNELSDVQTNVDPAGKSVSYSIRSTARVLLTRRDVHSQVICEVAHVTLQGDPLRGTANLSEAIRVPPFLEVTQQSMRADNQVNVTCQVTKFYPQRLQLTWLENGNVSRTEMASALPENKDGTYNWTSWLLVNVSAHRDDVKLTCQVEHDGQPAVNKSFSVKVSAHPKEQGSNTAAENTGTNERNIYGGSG
Experiment: SPR, antibody captured on Protein A/G, ECD-His analyte, 1:1 fit
Description: The binding kinetics of anti-SIRPα antibodies to various SIRPα analytes are determined by surface plasmon resonance (SPR) using a Biacore 8K+(Cytiva). 1×HBS-EP+(Cytiva) is used as running buffer and for all the dilutions unless stated otherwise. […]
Please go through the items and note down their kon.
Answers are plain numbers, in M⁻¹ s⁻¹.

For orientation, consider the following solved cases.
Binder | Uom | Value measured
Antibody E14 (antibody, human IgG1, kappa, L234A L235A, V domains shown) VH: QVQLQESGPGLVRPSETLSLTCTVSGGSIRNYYWSWIRQPPGKGLEWIGFIYYNGRTFYNPSLKSRVTISLDKSKNQFSLKMTSVTAADTAVYYCARVRAYSGIGLDGTDVWGQGTTVTVSS VL: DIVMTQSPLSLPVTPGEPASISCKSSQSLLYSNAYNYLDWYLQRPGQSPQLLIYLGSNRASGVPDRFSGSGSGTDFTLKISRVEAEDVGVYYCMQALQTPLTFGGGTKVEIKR | M⁻¹ s⁻¹ | 190000
Antibody E12 (antibody, human IgG1, kappa, L234A L235A, V domains shown) VH: QVQLQESGPGLVRPSETLSLTCTVSGGSIRNYYWSWIRQPPGKGLEWIGFIYYNGRTFYNPSLKSRVTISLDMSKNQFSLKMTSVTAADTAVYYCARVRAYSGIGLDGTDVWGQGTTVTVSS VL: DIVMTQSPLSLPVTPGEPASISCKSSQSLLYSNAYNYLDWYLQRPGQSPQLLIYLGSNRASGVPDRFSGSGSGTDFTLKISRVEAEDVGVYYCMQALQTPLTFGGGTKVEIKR | M⁻¹ s⁻¹ | 279000

**Query** Specify reported kon for the binder shown: Antibody E4 (antibody, human IgG1, kappa, L234A L235A, V domains shown) VH: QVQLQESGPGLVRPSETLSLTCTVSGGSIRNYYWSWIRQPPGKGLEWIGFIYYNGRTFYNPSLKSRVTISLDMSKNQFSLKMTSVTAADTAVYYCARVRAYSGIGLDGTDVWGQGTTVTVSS VL: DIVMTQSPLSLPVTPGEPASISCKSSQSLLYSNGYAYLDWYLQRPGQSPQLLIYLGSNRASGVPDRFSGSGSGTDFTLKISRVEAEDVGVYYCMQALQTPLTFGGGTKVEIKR
**Result** 222000
